// DC50 lookup, one value per entry
Target desc: IRAK4 protein in THP-1 cells (Homo sapiens (Human), UniProt Q9NWZ3)
Sequence (Q9NWZ3 whole entry): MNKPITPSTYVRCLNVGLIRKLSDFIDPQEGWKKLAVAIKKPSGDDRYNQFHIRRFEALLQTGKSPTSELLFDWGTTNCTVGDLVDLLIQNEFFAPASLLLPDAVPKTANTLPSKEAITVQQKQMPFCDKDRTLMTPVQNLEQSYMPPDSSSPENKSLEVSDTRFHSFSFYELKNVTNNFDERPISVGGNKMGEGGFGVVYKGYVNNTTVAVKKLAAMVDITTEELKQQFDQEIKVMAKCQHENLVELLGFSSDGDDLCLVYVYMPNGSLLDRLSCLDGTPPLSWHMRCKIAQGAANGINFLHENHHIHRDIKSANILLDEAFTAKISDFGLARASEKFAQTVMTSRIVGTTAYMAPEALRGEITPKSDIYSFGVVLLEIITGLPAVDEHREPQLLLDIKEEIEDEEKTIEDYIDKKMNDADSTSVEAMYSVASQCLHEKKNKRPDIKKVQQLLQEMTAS
Assay: PROTAC-induced IRAK4 protein degradation in THP-1 cells (Western Blot)
Assay type: cell-based
Reported conditions: concentration that degraded 50% of IRAK4, Western blotting, 24 hours after administration
Readout label: DC50 (nM)

1) CC(C)(O)c1cc2nn(C3CC4(CCN(C(=O)C5CCN(c6ccc7c(c6)C(=O)N(C6CCC(=O)NC6=O)C7=O)CC5)CC4)C3)cc2cc1NC(=O)c1cccc(C(F)(F)F)n1 (centres unmarked) = 3.6
2) Cc1cccc(C(=O)Nc2cc3cn(C4CC5(CCN(C(=O)C6CCN(c7ccc8c(c7)C(=O)N([C@@H]7CCC(=O)NC7=O)C8=O)CC6)CC5)C4)nc3cc2C(C)(C)O)n1 = 2.32
3) COc1cc2nn(C3CC4(CCN(C(=O)C5CCN(c6ccc7c(c6)C(=O)N(C6CCC(=O)NC6=O)C7=O)CC5)CC4)C3)cc2cc1NC(=O)c1cccc(C)n1 (centres unmarked) = 2.61
4) COc1cc2nn(C3CC4(CCN(c5cnn(C6CCN(c7ccc8c(c7)C(=O)N(C7CCC(=O)NC7=O)C8=O)CC6)c5)CC4)C3)cc2cc1NC(=O)c1cccc(C(F)(F)F)n1 (centres unmarked) = 33.8
5) COc1cc2nn(C3CC4(CCN(C(=O)C5CCN(c6ccc7c(c6)C(=O)N(C6CCC(=O)NC6=O)C7=O)CC5)CC4)C3)cc2cc1NC(=O)c1cnn2ccc(N3C[C@H]4C[C@@H]3CO4)nc12 (some centres unmarked) = 1.16

---

Recorded pIC50, one value per entry.
Target desc: kinase IRAK4 (Homo sapiens (Human))
Sequence (Q9NWZ3 whole entry): as above
Assay: Inhibitory effects of compounds on kinase activity (fluorescence microfluidic mobility detection, competitive with ATP)
Format: biochemical
Reported conditions: Table 2; IRAK4 6 nM, ATP 10 μM, substrate FAM-P8 3 μM
pIC50: −log10 of the molar value.
Readout label: pIC50

1. COc1cc2nn(C3CC4(CCN(C(=O)C5(F)CCN(c6ccc7c(c6)C(=O)N(C6CCC(=O)NC6=O)C7=O)CC5)CC4)C3)cc2cc1NC(=O)c1cccc(N2CCOCC2)n1 (stereo not shown) = 7.15
2. COc1cc2nn(C3CC4(CCN(C(=O)C5CCN(c6ccc7c(c6)C(=O)N(C6CCC(=O)NC6=O)C7=O)CC5)CC4)C3)cc2cc1NC(=O)c1coc(N2CCOCC2)n1 (stereo not shown) = 7.94
3. COc1cc2nn(C3CC4(CCN(C(=O)[C@H]5CC[C@H](Nc6ccc7c(c6)C(=O)N([C@@H]6CCC(=O)NC6=O)C7=O)CC5)CC4)C3)cc2cc1NC(=O)c1cccc(C(F)(F)F)n1 = 7.39
4. CC(C)(O)c1cc2nn(C3CCN(CC(=O)N4CCN(c5ccc6c(c5)C(=O)N(C5CCC(=O)NC5=O)C6=O)CC4)CC3)cc2cc1NC(=O)c1cccc(C(F)(F)F)n1 (stereo not shown) = 8.09
5. COc1cc2nn(C3CC4(CCN(C(=O)C5CCN(c6ccc7c(c6)C(=O)N(C6CCC(=O)NC6=O)C7=O)CC5)CC4)C3)cc2cc1NC(=O)c1cccc(N2CC3CC2CO3)n1 (stereo not shown) = 7.88
6. COc1cc2c(cnn2C2CC3(CCC(C(=O)N4CCN(c5ccc6c(c5)C(=O)N(C5CCC(=O)NC5=O)C6=O)CC4)CC3)C2)cc1NC(=O)c1cccc(C(F)(F)F)n1 (stereo not shown) = 5.71
7. COc1cc2nn([C@H]3C[C@@H]4CN(C(=O)C5CCN(c6ccc7c(c6)C(=O)N(C6CCC(=O)NC6=O)C7=O)CC5)C[C@@H]4C3)cc2cc1NC(=O)c1cccc(C(F)(F)F)n1 (stereo partly shown) = 7.90
8. COc1cc2nn(C3CC4(CCN(C(=O)[C@H]5CC[C@H](C(=O)N[C@H](C(=O)N6C[C@H](O)C[C@H]6C(=O)N[C@@H](C)c6ccc(-c7scnc7C)cc6)C(C)(C)C)CC5)CC4)C3)cc2cc1NC(=O)c1cccc(C(F)(F)F)n1 = 7.13
9. COc1cc2nn(C3CC4(CCN(c5cnn(C6CCN(c7ccc8c(c7)C(=O)N(C7CCC(=O)NC7=O)C8=O)CC6)c5)CC4)C3)cc2cc1NC(=O)c1cccc(C(F)(F)F)n1 (stereo not shown) = 7.46
10. COc1cc2nn(C3CC4(CCN(C5CC6(CCN(c7ccc8c(c7)C(=O)N(C7CCC(=O)NC7=O)C8=O)CC6)C5)CC4)C3)cc2cc1NC(=O)c1cccc(C(F)(F)F)n1 (stereo not shown) = 7.76

---

Quick list: DC50 per entry.
Target desc: IRAK4 protein in THP-1 cells (Homo sapiens (Human))
Assay: PROTAC-induced IRAK4 protein degradation in THP-1 cells (Western Blot)
Assay type: cell-based
Reported conditions: concentration that degraded 50% of IRAK4, Western blotting, 24 hours after administration
Readout label: DC50 (nM)

1. COc1cc2nn(C3CCN(C(C)C(=O)N4CCN(c5ccc6c(c5)C(=O)N(C5CCC(=O)NC5=O)C6=O)CC4)CC3)cc2cc1NC(=O)c1cccc(C(F)(F)F)n1 (centres unmarked) = 5.98
2. COc1cc2nn(C3CC4(CCN(C(=O)[C@H]5CC[C@H](Nc6ccc7c(c6)C(=O)N([C@@H]6CCC(=O)NC6=O)C7=O)CC5)CC4)C3)cc2cc1NC(=O)c1cccc(C(F)(F)F)n1 = 2.75
3. COc1cc2nn(C3CC4(CCN(C(=O)C5CCN(c6ccc7c(c6)C(=O)N([C@H]6CCC(=O)NC6=O)C7=O)CC5)CC4)C3)cc2cc1NC(=O)c1cccc(C(F)(F)F)n1 [Compound I-57] = 12.2
4. COc1cc2nn(C3CC4(CCN(C(=O)C5CC6(C5)CN(c5ccc7c(c5)C(=O)N(C5CCC(=O)NC5=O)C7=O)C6)CC4)C3)cc2cc1NC(=O)c1cccc(C(F)(F)F)n1 (centres unmarked) = 25.9
5. COc1cc2nn(C3CCN(CC(=O)N4CCN(c5cccc6c5C(=O)N(C5CCC(=O)NC5=O)C6=O)CC4)CC3)cc2cc1NC(=O)c1cccc(C(F)(F)F)n1 (centres unmarked) = 14.1

---

Target desc: kinase IRAK4 (Homo sapiens (Human))
Assay: Inhibitory effects of compounds on kinase activity (fluorescence microfluidic mobility detection, competitive with ATP)
Type: biochemical
Reported conditions: Table 2; IRAK4 6 nM, ATP 10 μM, substrate FAM-P8 3 μM
pIC50: −log10 of the molar value.
Readout label: pIC50

1. COc1cc2nn(C3CC4(CCN(C(=O)C5CCN(c6ccc7c(c6)C(=O)N(C6CCC(=O)NC6=O)C7=O)CC5)CC4)C3)cc2cc1NC(=O)c1cccc(C(F)F)n1 (centres unmarked) [Compound I-42] = 7.99
2. COc1cc2nn(C3CC4(CCN(CC(=O)N5CCN(c6ccc7c(c6)C(=O)N(C6CCC(=O)NC6=O)C7=O)CC5)CC4)C3)cc2cc1NC(=O)c1cccc(C(F)(F)F)n1 (centres unmarked) [Compound I-2] = 7.96
3. COc1cc2nn(C3CCN(CC(=O)N4CCN(c5cc6c(cc5F)C(=O)N(C5CCC(=O)NC5=O)C6=O)CC4)CC3)cc2cc1NC(=O)c1cccc(C(F)(F)F)n1 (centres unmarked) [II-5] = 7.96
4. O=C1CCC(N2C(=O)c3ccc(N4CCC(C(=O)N5CCC6(CC5)CC(n5cc7cc(NC(=O)c8cccc(C(F)(F)F)n8)c(N8CC[C@@H](O)C8)cc7n5)C6)CC4)cc3C2=O)C(=O)N1 (some centres unmarked) [Compound I-10] = 7.62
5. COc1cc2nn(C3CC4(CCN(C(=O)C5CCN(c6ccc7c(c6)C(=O)N(c6ccc(=O)[nH]n6)C7=O)CC5)CC4)C3)cc2cc1NC(=O)c1cccc(C(F)(F)F)n1 [Compound I-43] = 7.68
6. COc1cc2nn(C3CC4(CCN(C(=O)C5(F)CCN(c6ccc7c(c6)C(=O)N(C6CCC(=O)NC6=O)C7=O)CC5)CC4)C3)cc2cc1NC(=O)c1cccc(C(F)(F)F)n1 (centres unmarked) [Compound I-34] = 7.40
7. COc1cc2nn(C3CC4(C3)CN(C(=O)C3CCN(c5ccc6c(c5)C(=O)N(C5CCC(=O)NC5=O)C6=O)CC3)C4)cc2cc1NC(=O)c1cccc(C(F)(F)F)n1 (centres unmarked) [Compound I-14] = 7.78
8. O=C1CCC(N2C(=O)c3ccc(N4CCC(C(=O)N5CCC6(CC5)CC(n5cc7cc(NC(=O)c8cccc(C(F)(F)F)n8)c(F)cc7n5)C6)CC4)cc3C2=O)C(=O)N1 (centres unmarked) [Compound I-53] = 6.86
9. COc1cc2nn(C3CCN(C(=O)C4CCN(Cc5ccc6c(c5)C(=O)N(C5CCC(=O)NC5=O)C6=O)CC4)CC3)cc2cc1NC(=O)c1cccc(C(F)(F)F)n1 (centres unmarked) [II-16] = 7.85
10. COc1cc2nn(C3CCN(C4CC5(CCN(c6ccc7c(c6)C(=O)N(C6CCC(=O)NC6=O)C7=O)CC5)C4)CC3)cc2cc1NC(=O)c1cccc(C(F)(F)F)n1 (centres unmarked) [II-12] = 7.85
11. COc1cc2nn(C3CC4(CCN(C(=O)C5CCN(c6ccc7c(c6)CN(C6CCC(=O)NC6=O)C7=O)CC5)CC4)C3)cc2cc1NC(=O)c1cccc(C(F)(F)F)n1 (centres unmarked) [Compound I-7] = 8.09

All values here come from patent US20240423977A1.
